Ref: BigSolDB 2.1

- Conditions: in ethylene glycol, 298.35 K
Value Type: solubility (mole fraction)
Give the figure only, with no unit attached.

**Query** # solubility (mole fraction) lookup, item Cc1ccc2ccccc2c1
**Result** 0.0102

---

- Conditions: in n-hexane, 283.25 K
Value Type: solubility (mole fraction)
No unit in the answer, please; the number alone is enough.

**Query** Suppose we examine the molecule Cc1ccc2ccccc2c1 ; what solubility (mole fraction) value has been reported?
**Result** 0.348

---

- Conditions: in acetone, 303.25 K
Value Type: solubility (mole fraction)
I'd appreciate a reply containing only the number, no unit.

**Query** Need solubility (mole fraction), item Cc1ccc2ccccc2c1
**Result** 0.741
